B1: NF2 (merlin) isoform 7, human, full length (507 aa, lacks exons 2-3 = isoform-1 residues 39-121; exon-16 C-terminus), P35240-4 (parent)
chain: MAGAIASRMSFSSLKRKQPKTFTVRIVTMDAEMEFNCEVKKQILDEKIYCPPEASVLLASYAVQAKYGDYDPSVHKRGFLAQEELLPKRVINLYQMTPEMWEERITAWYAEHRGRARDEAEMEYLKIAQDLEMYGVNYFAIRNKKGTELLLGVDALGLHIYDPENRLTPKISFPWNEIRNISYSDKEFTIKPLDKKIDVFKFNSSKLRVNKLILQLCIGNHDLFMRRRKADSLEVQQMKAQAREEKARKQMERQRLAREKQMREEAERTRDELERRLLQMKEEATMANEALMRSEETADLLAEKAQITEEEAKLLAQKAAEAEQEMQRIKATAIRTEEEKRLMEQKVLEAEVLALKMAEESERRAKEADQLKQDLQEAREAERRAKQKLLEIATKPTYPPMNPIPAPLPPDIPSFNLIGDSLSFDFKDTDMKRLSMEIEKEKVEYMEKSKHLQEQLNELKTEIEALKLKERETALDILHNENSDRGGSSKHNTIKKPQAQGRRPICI

Variants of: B1
Experiment: reverse yeast two-hybrid deep mutational scan (rY2H-seq): NF2 isoform 7 mutant library as bait mated with wild-type prey strains; selection on medium lacking adenine for non-interacting pairs; NextSeq paired-end sequencing; enrichment vs …
Experimental parameters: with KDM1A (lysine-specific histone demethylase 1A; the table's label AOF2 is a gene synonym of KDM1A), O60341; yeast diploids after mating (RBait_S3 x RPrey_S3), 30 °C, selection for reporter genes on NB agar; human tyrosine kinase ABL2 co-expressed as the active kinase …; HIGHER = WEAKER BINDING (the opposite of display enrichments): higher = stronger loss of interaction: reverse Y2H selects yeast in which bait and prey do NOT interact (growth without adenine), so a …; hits-only table; scale: rY2H score; numbering: uniprot, sequence starts at 1
Measurement label: enrichment
Field format: numeric only.

Below are worked cases with known answers.
Q345L :: 2.39
A333E :: 2.04
K211I :: 2.6

Consider the variant shown here: K170R What is its recorded enrichment?
3.72

Need enrichment of M133E , thanks.
21.9

If you can, please state the reported enrichment value of L301A .
2

Entry source: paper PMC10244618
